- assay_target: T1, Suc-AAPE-pNA
- T1 chain: AAPE
attribute_measured: Glutamyl endopeptidase ratio (GR)

protein	attribute_measured	censoring_operator	recorded_number
Subtilisin 309 variant from Bacillus clausii (protein) AQSVPWGIERVQAPAAHNRGLTGSGVKVAVLDTGISTHPDLRIRGGASFVPGEPSTQDGNGHGTHVAGTIAALDNSIGVLGVAPSEALYAVKVLGASGSGSVSSIAQGLEWAGNNGMHVANLSLGSPSPSATLEQAVNSATSRGVLVVAASGNSGAGSISYPARYANAMAVGATDQNNNRASFSQYGAGLDIVAPGVNILSTWPGSTYASLNGTSMATPHVAGAAALVKQKNPSWSNVQIRNHLKNTATSLGDTWEYGSGLVNAEAATR	Glutamyl endopeptidase ratio (GR)	=	0.003
Serine protease from Nocardiopsis sp NRRL 18262 (protein) ADIIGGLAYTMGGRCSVGFAATNAAGQPGFVTAGHCGRVGTQVTIGNGRGVFEQSVFPGNDAAFVRGTSNFTLTNLVSRYNTGGYATVAGHNQAPIGSSVCRSGSTTGWHCGTIQARGQSVSYPEGTVTNMTRTTVCAEPGDSGGSYISGTQAQGVTSGGSGNCRTGGTTFYQEVTPMVNSWGVRLRT	Glutamyl endopeptidase ratio (GR)	<	0.001
Glutamyl endopeptidase blaSE from Bacillus licheniformis (protein) SVIGSDDRTRVTNTTAYPYRAIVHISSSIGSCTGWMIGPKTVATAGHCIYDTSSGSFAGTATVSPGRNGTSYPYGSVKSTRYFIPSGWRSGNTNYDYGAIELSEPIGNTVGYFGYSYTTSSLVGTTVTISGYPGDKTAGTQWQHSGPIAISETYKLQYAMDTYGGQSGSPVFEQSSSRTNCSGPCSLAVHTNGVYGGSSYNRGTRITKEVFDNLTNWKNSAQ	Glutamyl endopeptidase ratio (GR)	=	309
Lysyl endopeptidase from Achromobacter lyticus (protein) GVSGSCNIDVVCPEGDGRRDIIRAVGAYSKSGTLACTGSLVNNTANDRKMYFLTAHHCGMGTASTAASIVVYWNYQNSTCRAPNTPASGANGDGSMSQTQSGSTVKATYATSDFTLLELNNAANPAFNLFWAGWDRRDQNYPGAIAIHHPNVAEKRISNSTSPTSFVAWGGGAGTTHLNVQWQPSGGVTEPGSSGSPIYSPEKRVLGQLHGGPSSCSATGTNRSDQYGRVFTSWTGGGAAASRLSDWLDPASTGAQFIDGLDSGGGTP	Glutamyl endopeptidase ratio (GR)	<	0.001
